Every entry's value here was drawn from PubChem BioAssay.

# procedure_summary: inhibitors of hydroxyurea-induced Chk1 phosphorylation, primary screen, imaging, HeLa, phospho-Chk1 nuclear intensity (AID 1187); note: test concentration not given here
# test_settings: hydroxyurea-induced phospho-Chk1 immunofluorescence imaging, higher = more signal
property: z-score
Number, no unit, nothing else.

| molecule | property | observed_result |
| --- | --- | --- |
| COC(=O)[C@@]1(Cc2ccc(F)cc2)[C@H]2c3cc(C(=O)N4CCCC4)n(CCc4c[nH]c5ccc(OC)cc45)c3C[C@H]2CN1C(=O)c1ccccc1 | z-score | -0.199 |
| [N-]=[N+]=NCc1ccccc1C[C@@]1(C(N)=O)N=C(c2ccc(OCCCO)cc2)O[C@@H]1c1ccccc1CN=[N+]=[N-] | z-score | -0.347 |
| NCCCCCCNC(=O)[C@H]1C[C@H]2C(=O)N[C@@H](Cc3ccccc3)C(=O)N2[C@H]1c1ccc(O)cc1 | z-score | 0.592 |
| CCCc1cccc(=O)o1 | z-score | 0.549 |
| CC=CC(O)C1C=CC2C(=O)N(c3ccccc3)C(=O)C2N1Nc1ccc([N+](=O)[O-])cc1 (stereo not drawn) | z-score | -0.973 |

GET /values?readout=z-score&item= `Cc1ccc(S[C@]2(C(=O)NC(C)C)CC(=O)N(C3Cc4ccccc4C3)[C@@H]2c2ccc(CO)cc2I)cc1`
0.191

Given the molecule `CCCC=C(CCC)[C@@H](NP(=O)(c1ccccc1)c1ccccc1)c1ccc(C(F)(F)F)cc1` , what is its reported z-score?
-0.0984

I am curious: what z-score value has been reported for `O=C(O)[C@H](Cc1ccccc1)n1cc(-c2ccccn2)nn1` ?
0.662

Given `C=C(/C(=C/C[C@@H](OC(=O)c1ccncc1)c1ccccc1OCCO)c1cc(C(=O)OC)ccc1OC)C(C)C` , state its recorded z-score.
-1.86

Record request: z-score value, item `COCCOC(=O)N1C(=O)[C@@]2(c3cc(C#CCC(C(=O)OC)C(=O)OC)ccc31)[C@H](c1ccc(OCCO)cc1)N1[C@H](c3ccccc3)[C@H](c3ccccc3)OC(=O)[C@H]1[C@@H]2C(=O)N1CCN(c2ncccn2)CC1`
-0.0755
